TEST_TARGET: Factor X (FX), P00742
Sequence (P00742 whole entry, looked up): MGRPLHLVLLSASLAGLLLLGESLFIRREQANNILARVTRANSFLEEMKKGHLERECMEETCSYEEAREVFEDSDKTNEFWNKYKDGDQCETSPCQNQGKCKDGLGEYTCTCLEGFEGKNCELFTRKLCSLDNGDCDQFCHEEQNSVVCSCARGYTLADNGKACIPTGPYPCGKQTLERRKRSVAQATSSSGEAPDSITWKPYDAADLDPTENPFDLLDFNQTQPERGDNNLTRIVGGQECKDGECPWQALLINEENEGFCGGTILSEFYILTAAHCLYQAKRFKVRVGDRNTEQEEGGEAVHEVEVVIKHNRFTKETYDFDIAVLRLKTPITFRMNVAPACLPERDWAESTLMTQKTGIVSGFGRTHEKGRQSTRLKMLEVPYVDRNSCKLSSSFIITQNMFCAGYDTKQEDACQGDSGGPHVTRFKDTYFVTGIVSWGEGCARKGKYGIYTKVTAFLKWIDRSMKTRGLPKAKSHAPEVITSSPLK
REPORTED_ENDPOINT: % of WT kcat/KM
Please don't drop the unit; write it after the number.

Illustrative cases are given below, each with its answer.
INSERT INTO assay_data (protein, observed_measurement) VALUES
  ('FIXa-A103N/N105S/K247N/N249S/R318Y/R338E/R403E/E410N (protein) chain 1: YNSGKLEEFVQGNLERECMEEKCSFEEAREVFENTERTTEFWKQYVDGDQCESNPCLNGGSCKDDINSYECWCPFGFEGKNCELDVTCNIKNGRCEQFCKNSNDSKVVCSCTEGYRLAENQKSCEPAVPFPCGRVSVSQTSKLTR chain 2: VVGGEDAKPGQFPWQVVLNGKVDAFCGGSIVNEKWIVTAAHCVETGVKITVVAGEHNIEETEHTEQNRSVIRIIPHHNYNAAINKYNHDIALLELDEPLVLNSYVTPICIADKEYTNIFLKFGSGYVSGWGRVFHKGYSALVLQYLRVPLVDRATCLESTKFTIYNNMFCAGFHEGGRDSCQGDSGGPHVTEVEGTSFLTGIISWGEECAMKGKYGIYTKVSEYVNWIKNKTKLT', '324%'),
  ('FIXa-Y155F/K247N/N249S/R338E/E410N (protein) chain 1: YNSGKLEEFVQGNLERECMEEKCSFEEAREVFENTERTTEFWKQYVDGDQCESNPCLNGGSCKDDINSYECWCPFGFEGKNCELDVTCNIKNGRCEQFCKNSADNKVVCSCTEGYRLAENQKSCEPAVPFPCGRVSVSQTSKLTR chain 2: VVGGEDAKPGQFPWQVVLNGKVDAFCGGSIVNEKWIVTAAHCVETGVKITVVAGEHNIEETEHTEQNRSVIRIIPHHNYNAAINKYNHDIALLELDEPLVLNSYVTPICIADKEYTNIFLKFGSGYVSGWGRVFHKGRSALVLQYLRVPLVDRATCLESTKFTIYNNMFCAGFHEGGRDSCQGDSGGPHVTEVEGTSFLTGIISWGEECAMKGKYGIYTKVSRYVNWIKNKTKLT', '1009%'),
  ('FIXa variant R318Y/R338E/R403E (protein) chain 1: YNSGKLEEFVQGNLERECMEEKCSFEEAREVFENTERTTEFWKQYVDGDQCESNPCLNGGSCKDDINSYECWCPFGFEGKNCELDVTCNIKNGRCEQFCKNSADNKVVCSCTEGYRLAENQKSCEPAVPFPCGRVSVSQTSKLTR chain 2: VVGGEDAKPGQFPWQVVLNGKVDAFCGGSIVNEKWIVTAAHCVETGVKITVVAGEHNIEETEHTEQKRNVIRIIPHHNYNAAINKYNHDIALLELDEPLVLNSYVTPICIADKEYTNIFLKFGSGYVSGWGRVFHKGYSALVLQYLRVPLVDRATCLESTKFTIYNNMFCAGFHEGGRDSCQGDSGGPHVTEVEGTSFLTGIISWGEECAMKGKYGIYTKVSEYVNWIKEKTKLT', '134%');

Now examine the next entry.
Q: Give % of WT kcat/KM for FIXa variant Y155F/R318Y/R338E/R403E/E410N (protein) chain 1: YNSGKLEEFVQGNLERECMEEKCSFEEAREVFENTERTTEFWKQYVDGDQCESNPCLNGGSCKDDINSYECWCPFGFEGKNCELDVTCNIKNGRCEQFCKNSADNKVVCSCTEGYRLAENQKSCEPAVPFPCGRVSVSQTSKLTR chain 2: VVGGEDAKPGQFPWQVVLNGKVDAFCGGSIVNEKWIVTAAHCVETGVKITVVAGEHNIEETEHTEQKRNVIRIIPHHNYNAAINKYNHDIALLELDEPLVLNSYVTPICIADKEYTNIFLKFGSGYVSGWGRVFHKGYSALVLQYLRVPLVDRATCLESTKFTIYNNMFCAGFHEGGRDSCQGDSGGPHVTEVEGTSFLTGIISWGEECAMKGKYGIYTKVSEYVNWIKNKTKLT
Result: 406%
